# assay.details: High Content Imaging Cell-Based qHTS for Inhibitors of the mTORC1 Signaling Pathway in MEF (Tsc2-/-, p53-/-) Cells (AID 2666);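 further: percent of cells scored positive for phospho-rpS6 Ser235/236 immunostaining by imaging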
# conditions.used: series mostly up to 38.3 µM
Inconclusive results are not listed. Calls of active or inactive are those of the source. The call rests on the fitted dose curve; in most records, active means well fitted inhibition curve with a large enough effect; inconclusive means small, poorly fitted or top-dose-only effect; inactive means flat fitted curve, though single readings scatter.

- compound: "CCN(CC)CCNC(=O)c1cc(Cl)c(N)cc1OC"
  outcome: "inactive"
- compound: "CN(C)CC[C@@H](c1ccc(Cl)cc1)c1ccccn1"
  outcome: "inactive"
- compound: "CCCCCCCCCCCCCCCC(=O)NCCO"
  outcome: "inactive"
- compound: "CC(C(O)c1ccc(O)cc1)N1CCC(Cc2ccccc2)CC1 (stereo unspecified)"
  outcome: "inactive"
- compound: "COC(=O)C1=C(C)NC(C)=C(C(=O)OC)C1c1ccccc1[N+](=O)[O-]"
  outcome: "inactive"
- compound: "C[C@]12C[C@H](O)[C@H]3[C@@H](CCC4=CC(=O)CC[C@@]43C)[C@@H]1CC[C@@H]2C(=O)CO"
  outcome: "inactive"
